These entries and their values trace back to the RNAGym collection of RNA variant scans (doi:10.7554/elife.80360).

B1: Hairpin Ribozyme (parent)
chain: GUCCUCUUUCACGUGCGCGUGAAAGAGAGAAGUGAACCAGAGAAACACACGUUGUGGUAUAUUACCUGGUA

Variants of: B1
Assay: self-cleavage, relative activity (ratio to wild type); higher = more cleavage; co-transcriptional
self-cleavage of 0.2 or higher: True. Under 0.2: False.

GUCCUCUUUCACGUGCGCGUUAAAGAGAGAAGUGAACCAGAGAAACACACGUUGUGUUAUAUUACCUGGUA [G21U G57U]	True
GUCCUCUUUCACGUGCGCGUGAAUGAGAGAAGUGAACCAGAGAAACACACGUUGGGGUAUAUUACCUGGUA [A24U U55G]	True
GUCCUCUUUCACGUGCGCGUGAAAGAGAGAAGUGAAGCAGAGAAACACACGUUGUGUUAUAUUACCUGGUA [C37G G57U]	False
GUCCUCUUUCACGUGCGCGUGAAAGCGAGAAGUGAACCGGAGAAACACACGUUGUGGUAUAUUACCUGGUA [A26C A39G]	True
GUCCGCUUUCACGUGCGCGUGAAAGAGAGAAGUGAACCAGAGAACCACACGUUGUGGUAUAUUACCUGGUA [U5G A45C]	False
GUCCUCUUUCACGUGCGCGUGAAAUAGAGAAGUGAACCAGAGAAACACACGUUGUGGUAUAUUACCCGGUA [G25U U67C]	False
GUCCUCUUUCACGUGCGCGUGAAAGAGAGAAGUGAACCCGAGAAACACAUGUUGUGGUAUAUUACCUGGUA [A39C C50U]	False
GUCCUCUUUCACGUGCGCGUGAAAGAUUGAAGUGAACCAGAGAAACACACGUUGUGGUAUAUUACCUGGUA [G27U A28U]	False
CUCCUCUUUCACGUGCGCGUGAAAGAGAGAAGUGAACCAGAGAAACACACGUUGUGGUAUAUUACCUGGGA [G1C U70G]	False
GUCCUCUUUCACGUGCGCGUGAAAGAGAGAAGUGAACCAGUGAAACACACGUUGUGAUAUAUUACCUGGUA [A41U G57A]	False
GUCCUCUUUCACGCGCGCGUGAAAGAGAGAAGUGAACCAGAGAAACACACGUUGUGGUAUUUUACCUGGUA [U14C A61U]	True
GUCCUCUUUCGCGUGCGCGUGAAAGAGAGAAGUCAACCAGAGAAACACACGUUGUGGUAUAUUACCUGGUA [A11G G34C]	True
GUCCUCUUUCACGUGCGCGUGAAAGAGAGAAGUGAUCCAGAGAACCACACGUUGUGGUAUAUUACCUGGUA [A36U A45C]	True
GUCCUGUUUCACGUGCGCGUGAAAGAGUGAAGUGAACCAGAGAAACACACGUUGUGGUAUAUUACCUGGUA [C6G A28U]	True
GUCCUCUUUCACGUGCGCUUGAAAGAGAGAAGUGAACUAGAGAAACACACGUUGUGGUAUAUUACCUGGUA [G19U C38U]	True
GUCCUCUUUCACGUGUGCGUGAAAGAGAUAAGUGAACCAGAGAAACACACGUUGUGGUAUAUUACCUGGUA [C16U G29U]	False
GUCCUCUUUCACGUGCGCGUGAAAGAGAGAACUGAACCAGAGAAACACACGUCGUGGUAUAUUACCUGGUA [G32C U53C]	False
GUCCUCUUCCACGUGCGCGUGAAAGAGAGAAGUGAACCAGAGAAACACACGCUGUGGUAUAUUACCUGGUA [U9C U52C]	True
GUCCUCUUUCACGAGCGCGUGAAAGAGAGAAGUGAACCAGAGAAACACACGUUGUGGUAUAUCACCUGGUA [U14A U63C]	True
GUCCUCUUUCACGUGCGCGUGAAAGAGAGAACUGAACCAGAGAAACACCCGUUGUGGUAUAUUACCUGGUA [G32C A49C]	False
GGCCUCUUUCACGUGCGCGUGAAAGAGAGAAGUGAACCAGAGAAACACACGUUGUGGUAUAUUACCUGGUU [U2G A71U]	True
GUCCUCUUUCACGUGCGCGUGGAAGAGAGAAGUGAACCAGAGAAACACACGUUGUGGUAUAUUACCUGCUA [A22G G69C]	True
GUACUCUUUCACGUGCGGGUGAAAGAGAGAAGUGAACCAGAGAAACACACGUUGUGGUAUAUUACCUGGUA [C3A C18G]	True
GUCCUCUUUCACGUGCGCGUGAAAGAGAGAAGUGAACCAGAGAAACACACGUUGUGGUCUAUUACCUAGUA [A59C G68A]	False
GUCCUCUUUCACGUACGCGAGAAAGAGAGAAGUGAACCAGAGAAACACACGUUGUGGUAUAUUACCUGGUA [G15A U20A]	True
GUCCUCUUUCACGUGCGCGUGAAAGAGAGAGGUGAACCAGAGAAACACACGUUGCGGUAUAUUACCUGGUA [A31G U55C]	True
GUCCUCUUUCACGUGCGCGUGAAAGAUAGAAGUGAACCAGAGAAACACACUUUGUGGUAUAUUACCUGGUA [G27U G51U]	True
GUCCUCUUUCACGUGCCCGUGAAAGAGAGAAGUGAACCUGAGAAACACACGUUGUGGUAUAUUACCUGGUA [G17C A39U]	True
GUCCUCUUUGACGUGCGCGUGAAAGAGAGAAGUAAACCAGAGAAACACACGUUGUGGUAUAUUACCUGGUA [C10G G34A]	True
GUCCUCUUUUACGUGCGCGUGAAAGAGAGAAGUGAACCAGAGAAACAUACGUUGUGGUAUAUUACCUGGUA [C10U C48U]	True
GUCCUCUUUCACGUUCGCGUGAAAGAGAGAAGUGAACCAGAGAAACACACGUUGUGGUAUUUUACCUGGUA [G15U A61U]	False
GUCCUCUUUCACGUACGCGUGAAAGAGAGAAGUAAACCAGAGAAACACACGUUGUGGUAUAUUACCUGGUA [G15A G34A]	True
GUCCUCCUUCACGUGCGCGUGAAAGAGAGAAGUGAACCAGAGAAACACACGUUGGGGUAUAUUACCUGGUA [U7C U55G]	True
GUCCUGUUUCACGUGCGCGUGAAAGAGAGAAGUGAACCAGCGAAACACACGUUGUGGUAUAUUACCUGGUA [C6G A41C]	True
GUCCUCUUUCACGUGCGCGUGAAAAAGAGAAGUGAACCAGAGAAACACACGUUGUGGUAUAUUAUCUGGUA [G25A C65U]	True
GUCCUCUUACACGUGCGCGUGAAAGAGAGAAGUGAACCAGAGAAACACACGUUGUGGUAUUUUACCUGGUA [U9A A61U]	False
GUCCUCUUUCACGUGCGCGUGAAAGAGAGAAGUGAACCAGAGAAACACACGUUGCUGUAUAUUACCUGGUA [U55C G56U]	True
GUCCUGUUUCACGUGCGCGUGAAAGAGAGAAGUGACCCAGAGAAACACACGUUGUGGUAUAUUACCUGGUA [C6G A36C]	True
GUCCUCUUUCAUGUGCGCGUGAAAGAGAGAAGUGAACCAGAUAAACACACGUUGUGGUAUAUUACCUGGUA [C12U G42U]	True
GUCCUCUUUCACGUGCGCCUGAAAGAGAGAAGUGAACCAGAGAAACACACGUUGUGGUAUAUUACCUCGUA [G19C G68C]	True
GUCCUCUUUCACGUGCGCGUGAAAGAGAGAAGUGAACCAGAGAAACACACGUUGGGGUAUAUUACCUGGGA [U55G U70G]	False
GUCCUCUUUCACGUGCGCGUGAAACAGAGAAGUGAACCAGAGAAACACACCUUGUGGUAUAUUACCUGGUA [G25C G51C]	True
GUCCUCUUUCACGUGCGCGUGAAAGAGAGAACUGAACCAGAGAAACACACGUUGUGGUAUAGUACCUGGUA [G32C U62G]	False
GUCCUCUUUCACGUGCGCGUGAAAGAGAGAAGUGAACCAGAGAAACACACGUUGUGGUUUGUUACCUGGUA [A59U A61G]	False
GUCCUCUUUCACGUUCGCGUGAAAGAGAGAAGUGAACCAGAGAAACACACGUUGUGGUAUGUUACCUGGUA [G15U A61G]	False
GUCCUCUUUCACGUGCGCGUGAAAGAGAAAAGUGAACCAGAGAAAUACACGUUGUGGUAUAUUACCUGGUA [G29A C46U]	True
GUCCGCUUUCACGUGCGCGUGAAAGAGAGAAGUGAACCAGAGAAACACACGUUGCGGUAUAUUACCUGGUA [U5G U55C]	False
GUACUCUUUGACGUGCGCGUGAAAGAGAGAAGUGAACCAGAGAAACACACGUUGUGGUAUAUUACCUGGUA [C3A C10G]	True
GUCCUCUUUCACGUGCACGUGAAAGAGAGAAGUGAACCAGAAAAACACACGUUGUGGUAUAUUACCUGGUA [G17A G42A]	True
GUCCUCUUUCACGUGCGCGUGAAAGAGAGAAGUGAACCAGAGAAACACACGUUGUGGGACAUUACCUGGUA [U58G U60C]	True
GUCCUCUUUCACGUGCGCGUGAAAGAGAGAAUUGAACCAGAGAAAAACACGUUGUGGUAUAUUACCUGGUA [G32U C46A]	True
GUCCUCUUUCACGUGCGCGUGAAAGAGAGAAGUGAACCAGAGAAACACACGUUGUGCUAUAUUACCUGUUA [G57C G69U]	False
GUCCUCUUUCACGUGCGCGUGAAAGAGAGAAGUGAACCAGAGAUACACACGCUGUGGUAUAUUACCUGGUA [A44U U52C]	False
GUCCUCUUUCACGUGCGCGUGAAAGAGAGAAGUGAACCAGAGAAACACACGUUGAGGUAUAGUACCUGGUA [U55A U62G]	False
GUCCUCUUUCACGUGCGCGUGAAAGUGAGAAGUGAACCAGAGAAACACACGUUGUGGUAUAUUACCUGUUA [A26U G69U]	True
GUCCUCUUUCACGUGCGCGUGAAAGAGAGAAGUGAACCAGAGAAACACACGUUCUGGUAUAUUAACUGGUA [G54C C65A]	False
GUCCUCUUUCACGUGCGCGUGUAAGAGAGAAGUAAACCAGAGAAACACACGUUGUGGUAUAUUACCUGGUA [A22U G34A]	True
GUCCUCUUUCGCGUGCGCGUGAAAGAGAGAAGUGAACCAGAGAAACACACGUUGUGGUAUAUUACCUGGCA [A11G U70C]	True
GUCCUCUUUCACGUGCGCGUGAAAGAGAGAAGUGAACCGGAGAAACACACGUUGUGGUUUAUUACCUGGUA [A39G A59U]	False
GUCCUCUUUCACGUGCGCGUGAAAGAGAGAAGUCAGCCAGAGAAACACACGUUGUGGUAUAUUACCUGGUA [G34C A36G]	True
GUCCUCUUUCACGUGCGCGUGAAAGAGAGAAGUGAACCAGAGAAAAACACGUUGUGGUAUAUUACCUAGUA [C46A G68A]	False
GUCCUCUUUCACGUGCGCGUGAAAGAGAGAAGUGAACCAGAGAACCACACGUUGUGGUAUAUUACCUGGCA [A45C U70C]	True
GUCCUCUUUCAAGUGCGCGUGAAAGAGAGAAGUGAACCAGAGAAACACACGUUGUGGUAUAUUACCUGCUA [C12A G69C]	True
GUCGUCUUUCACGUGCGCGUGAAAGAGAGAAGUGAACGAGAGAAACACACGUUGUGGUAUAUUACCUGGUA [C4G C38G]	False
GUCCUCUUUCACGUGCGCGUGAAAGGGAGAAGUGAACUAGAGAAACACACGUUGUGGUAUAUUACCUGGUA [A26G C38U]	True
GUCCUCUUUCACGUGCGCGUGAAGGAGAGAAGUGACCCAGAGAAACACACGUUGUGGUAUAUUACCUGGUA [A24G A36C]	True
GUCCUUUUUCACGUGCGCGUGAAAGUGAGAAGUGAACCAGAGAAACACACGUUGUGGUAUAUUACCUGGUA [C6U A26U]	True
GUCCUCUUUCACGUGCGCGUGAAAGAGAGAACUGAACCAGAGAAACACACGUUGUGGUAUAUCACCUGGUA [G32C U63C]	False
GUCCUCUUUCACGUGCGCGUGAAAGGGAGAAGUGAACCAGAGAAACACACGAUGUGGUAUAUUACCUGGUA [A26G U52A]	True
GUCCUCUUUCACGUGCGCGUGAAAGAGAGAAAUGAACCAGACAAACACACGUUGUGGUAUAUUACCUGGUA [G32A G42C]	False
GUCCUCUUUCACGUGCACAUGAAAGAGAGAAGUGAACCAGAGAAACACACGUUGUGGUAUAUUACCUGGUA [G17A G19A]	True
GUCCUCUUUCACGUCCGCGUGAAAGAGAGAAGUGAACCAGAGAAACACACGUUGUGGUAUAUGACCUGGUA [G15C U63G]	False
GUCCUCAUUCACGUGCGCGUGAAAGAGAGAAGAGAACCAGAGAAACACACGUUGUGGUAUAUUACCUGGUA [U7A U33A]	True
GUCCUGUUUCACGUGCGCGUGAAAGAGAGAAGUGAACCAGAGAAACACACGUUGUGAUAUAUUACCUGGUA [C6G G57A]	False
GUCCUCUUUCACGUGCGCGUGAAAGAGAUAAGUGAACCAGAGAAACACACGUUGUGGUAUAUUACCUGGGA [G29U U70G]	True
GUCCUCUUUCACGUGCGCGUGAAAGUGACAAGUGAACCAGAGAAACACACGUUGUGGUAUAUUACCUGGUA [A26U G29C]	False
GUCCUCUUUCACGUGCGCGUGAAAGAGAGACGUGAUCCAGAGAAACACACGUUGUGGUAUAUUACCUGGUA [A31C A36U]	False
GACCUCUUUCACGUGCGCGUGAAAGAGAGAAGUGAACCAGAGAAACACACGUUGUGGUAUAUUACCUGUUA [U2A G69U]	False
